# System: Saccharomyces cerevisiae BY4741 SeMeCo community
# Procedure Details: z-score of subpopulation abundance vs DMSO median, subpopulation auxotrophic for HL; higher = larger share of this subpopulation than in DMSO controls
# Measurement Parameters: 10 µM; 24 h; SM minimal medium; subpopulation (auxotrophy): HL
Structures can show the parent of a compound that is named as a salt.
Measured Property: z-score of subpopulation abundance

- CC(C)C(=O)Oc1ccc(CO)cc1[C@H](CCN(C(C)C)C(C)C)c1ccccc1 [Fesoterodine Fumarate]: -0.27
- Cc1ncc([N+](=O)[O-])n1CCO [Metronidazole]: -0.42
- CO[C@H]1C[C@@H]2CC[C@@H](C)[C@@](O)(O2)C(=O)C(=O)N2CCCC[C@H]2C(=O)O[C@H]([C@H](C)C[C@@H]2CC[C@@H](OC(=O)C(C)(CO)CO)[C@H](OC)C2)CC(=O)[C@H](C)/C=C(\C)[C@@H](O)[C@@H](OC)C(=O)[C@H](C)C[C@H](C)/C=C/C=C/C=C/1C: 15.9
- Cc1c[nH]c(=O)[nH]c1=O [Thymine]: -0.04

* * *

# Test system: Saccharomyces cerevisiae BY4741 SeMeCo community
# Procedure Details: z-score of subpopulation abundance vs DMSO median, subpopulation auxotrophic for HM; higher = larger share of this subpopulation than in DMSO controls
# Measurement Parameters: 10 µM; 24 h; SM minimal medium; subpopulation (auxotrophy): HM
Structures can show the parent of a compound that is named as a salt.
Quick reference: z-score of subpopulation abundance of the listed items.
Measured Property: z-score of subpopulation abundance

• CC1(C)S[C@@H]2[C@H](NC(=O)Cc3ccccc3)C(=O)N2[C@H]1C(=O)O [Benzylpenicillin potassium] = -0.39
• CCCN1C[C@H](C)[C@@H](O)[C@](C)(O)[C@@H](CC)OC(=O)[C@H](C)[C@@H](O[C@H]2C[C@@](C)(OC)[C@@H](O)[C@H](C)O2)[C@H](C)[C@@H](O[C@@H]2O[C@H](C)C[C@H](N(C)C)[C@H]2O)[C@](C)(O)C[C@H]1C = 0.24
• CCOc1ccc2ccccc2c1C(=O)N[C@@H]1C(=O)N2[C@@H]1SC(C)(C)[C@@H]2C(=O)O [Nafcillin Sodium] = 0.22
• NC(=O)N1c2ccccc2CC(=O)c2ccccc21 [Oxcarbazepine] = 0
• CCC(C)(C)c1ccc(CC(C)CN2C[C@@H](C)O[C@@H](C)C2)cc1 (stereo partly specified) [Amorolfine HCl] = 8.92
• CC(C)NC(=N)NC(=N)Nc1ccc(Cl)cc1 = 0.11
• CN(C)[C@@H](CCOc1cccc2ccccc12)c1ccccc1 [Dapoxetine HCl] = -0.39
• C(=C\c1ccccc1)/CN1CCN(C(c2ccccc2)c2ccccc2)CC1 = -0.68
• C[N+](C)(C)CCO.[Cl-] [Choline Chloride] = -1.2
• CCc1cc(C(N)=S)ccn1 [Ethionamide] = 0.03
• Nc1nc(N)nc(-c2cc(Cl)ccc2Cl)n1 = -0.68
• CC(C)C(=O)c1c(C(C)C)nn2ccccc12 = -1.12
• Nc1nc2[nH]cc(CCc3ccc(C(=O)N[C@@H](CCC(=O)O)C(=O)O)cc3)c2c(=O)[nH]1 [Pemetrexed] = -4.62
• CC[C@H]1OC(=O)C[C@@H](O)[C@H](C)[C@@H](O[C@@H]2O[C@H](C)[C@@H](O)[C@H](N(C)C)[C@H]2O)[C@@H](CCN2C[C@H](C)C[C@H](C)C2)C[C@@H](C)C(=O)/C=C/C(C)=C/[C@@H]1CO[C@@H]1O[C@H](C)[C@@H](O)[C@@H](OC)[C@H]1OC = 0.93
• CNCCCN1c2ccccc2CCc2ccccc21 [Desipramine Hydrochloride] = 0.82
• Oc1c(I)cc(Cl)c2cccnc12 = 37.7
• CO/N=C(\C(=O)N[C@@H]1C(=O)N2C(C(=O)O)=C(CSc3nnnn3C)CS[C@H]12)c1csc(N)n1 [Cefmenoxime hydrochloride] = 0.28
• COc1cc(NS(=O)(=O)c2ccc(N)cc2)nc(OC)n1 [SulfadiMethoxine sodium] = 0.06
• C#C[C@]1(OC(C)=O)CC[C@H]2[C@@H]3CCC4=C[C@@H](OC(C)=O)CC[C@@H]4[C@H]3CC[C@@]21C [Ethynodiol diacetate] = -0.18
• O=C(O)Cc1ccccc1Nc1c(Cl)cccc1Cl [Diclofenac acid] = 0.14
• NC[C@H]1O[C@H](O[C@H]2[C@H](O)[C@@H](O[C@H]3O[C@H](CO)[C@@H](O)[C@H](N)[C@H]3O)[C@H](N)C[C@@H]2N)[C@H](N)C[C@@H]1O = -0.2
• OCc1ccccc1O[C@@H]1O[C@H](CO)[C@@H](O)[C@H](O)[C@H]1O = -0.68
• CC[C@@H]([C@H](C)O)n1ncn(-c2ccc(N3CCN(c4ccc(OC[C@@H]5CO[C@@](Cn6cncn6)(c6ccc(F)cc6F)C5)cc4)CC3)cc2)c1=O = 11.5
• C#C[C@]1(O)CC[C@H]2[C@@H]3CCC4=Cc5oncc5C[C@]4(C)[C@H]3CC[C@@]21C = -0.49
• C#CCN[C@@H]1CCc2ccccc21 [Rasagiline] = -0.4
• CC[N+](C)(C)c1cccc(O)c1 [Edrophonium chloride] = -0.15
• COc1cc(Cc2cnc(N)nc2N)cc(OC)c1OC = -0.06
• O=C(O)c1cn(C2CC2)c2cc(N3CCNCC3)c(F)cc2c1=O [Ciprofloxacin hydrochloride hydrate] = 0.16
• CCOC(=O)C1=C[C@]2(CC)CCCN3CCc4c(n1c1ccccc41)[C@@H]32 = 0.55
• CCCCOc1cc(C(=O)OCCN(CC)CC)ccc1N [Oxybuprocaine HCl] = 0.19
• CCN[C@@H]1C[C@H](N)[C@@H](O[C@H]2OC(CN)=CC[C@H]2N)[C@H](O)[C@H]1O[C@H]1OC[C@](C)(O)[C@H](NC)[C@H]1O [Netilmicin Sulfate] = 0.03
